Reported CLint scaled is given for each of the following compounds.
- Test protocol: in vitro
- Protocol conditions: human, liver microsomes
Outcome measure: CLint scaled (mL/min/kg)

[[record]]
substance_smiles = "CC(C)Oc1cccc(CN2CC[C@]3(CNS(=O)(=O)N3c3cccc(F)c3)C[C@@H]2C)c1"
relation_operator = ">"
test_value = 19

[[record]]
substance_smiles = "CCOc1cc(CN2CC[C@@]3(C[C@@H]2C)CN(C)S(=O)(=O)N3c2cccc(F)c2)ccc1O"
relation_operator = "="
test_value = 79.9

[[record]]
substance_smiles = "CCc1n[nH]c2ccc(CN3CC[C@@]4(C[C@@H]3C)CN(C)S(=O)(=O)N4c3cccc(F)c3)cc12"
relation_operator = "="
test_value = 74.2

[[record]]
substance_smiles = "CC(C)Oc1cc(CN2CC[C@@]3(C[C@@H]2C)CN(C)S(=O)(=O)N3c2cccc(F)c2)ccc1O"
relation_operator = "="
test_value = 15.4

[[record]]
substance_smiles = "CC(=O)Nc1ccc(CN2CC[C@@]3(C[C@@H]2C)CN(C)S(=O)(=O)N3c2cccc(F)c2)cc1"
relation_operator = ">"
test_value = 300

[[record]]
substance_smiles = "C[C@H]1C[C@]2(CCN1Cc1ccc3[nH]ccc3c1)CN(C)S(=O)(=O)N2c1cccc(F)c1"
relation_operator = "="
test_value = 175

[[record]]
substance_smiles = "C[C@H]1C[C@]2(CCN1Cc1ccc(O)c(Cl)c1)CN(C)S(=O)(=O)N2c1cccc(F)c1"
relation_operator = "="
test_value = 173

[[record]]
substance_smiles = "CC(C)Oc1cccc(CN2CC[C@@]3(C[C@@H]2C)CN(C)S(=O)(=O)N3c2cccc(F)c2)c1"
relation_operator = ">"
test_value = 19

[[record]]
substance_smiles = "C[C@H]1C[C@]2(CCN1Cc1ccc(O)cc1)CN(C)S(=O)(=O)N2c1cccc(F)c1"
relation_operator = "="
test_value = 152


* * *

- Test protocol: Ratio of drug uptake in brain to plasma in FVB/N mouse at 10 mg/kg, sc after 60 mins
- Type: ADME, organism-based
- Set-up: dose 10 mg/kg, route subcutaneous
- Protocol conditions: brain and plasma, read-out: BPR
Reported Kp at 1 h is given for each of the following compounds.
Outcome measure: Kp at 1 h

[[record]]
substance_smiles = "CC(C)Oc1cccc(CN2CC[C@]3(CNS(=O)(=O)N3c3cccc(F)c3)C[C@@H]2C)c1"
outcome_measure = "Kp at 1 h"
test_value = 0.67

[[record]]
substance_smiles = "CC(C)Oc1cc(CN2CC[C@@]3(C[C@@H]2C)CN(C)S(=O)(=O)N3c2cccc(F)c2)ccc1O"
outcome_measure = "Kp at 1 h"
test_value = 0.35

[[record]]
substance_smiles = "CC(C)Oc1cccc(CN2CC[C@@]3(C[C@@H]2C)CN(C)S(=O)(=O)N3c2cccc(F)c2)c1"
outcome_measure = "Kp at 1 h"
test_value = 0.97


* * *

- Test protocol: Intrinsic clearance in rat liver microsomes
- Type: ADME, Microsome
- Protocol conditions: read-out: CLH
Outcome measure: CLint scaled

[[record]]
substance_smiles = "CC(C)Oc1cccc(CN2CC[C@@]3(C[C@@H]2C)CN(C)S(=O)(=O)N3c2cccc(F)c2)c1"
outcome_measure = "CLint scaled"
test_value = "> 65.5 mL/min/kg"

[[record]]
substance_smiles = "CC(C)Oc1cc(CN2CC[C@@]3(C[C@@H]2C)CN(C)S(=O)(=O)N3c2cccc(F)c2)ccc1O"
outcome_measure = "CLint scaled"
test_value = "59.7 mL/min/kg"

[[record]]
substance_smiles = "CC(C)Oc1cccc(CN2CC[C@]3(CNS(=O)(=O)N3c3cccc(F)c3)C[C@@H]2C)c1"
outcome_measure = "CLint scaled"
test_value = "> 65.5 mL/min/kg"

